Measured values drawn from patent US20250263490A1 for this set.

target: T1, recombinant human domain 1-3His6 of the cation-independent mannose-6-phosphate receptor (human, UniProt P11717 41-467); assay: BLI exp 2, dissoc pH 7.4
T1 construct: Biotinylated (NHS-PEG4-biotin) for BLI; Glycosylated; also called hDom1-3His6; hCI-M6PRD1-D3
Overview of recorded koff for various binders
measured_property: koff (s⁻¹)

- binder: "anti-CI-M6PR VHH7 (VHH, His6-tagged (Pichia pastoris)) VHH: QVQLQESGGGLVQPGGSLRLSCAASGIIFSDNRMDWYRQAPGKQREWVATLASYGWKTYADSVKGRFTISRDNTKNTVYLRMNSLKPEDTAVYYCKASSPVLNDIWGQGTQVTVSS"
  result: 0.0118
- binder: "anti-CI-M6PR VHH5 (VHH, His6-tagged; made in Pichia pastoris, later also in E. coli WK6) VHH: QVQLQESGGGLVQAGGSLKLSCAAAGRTFSRLAMGWFRQAPGKEREFVAAISENGDSIHYSDSVKGRFAVSRDNAKNTVYLQMNSLKPEDTAIYYCAADRAAYYCSGSGCYPSRAPAAASYDYWGQGTQVTVSS"
  result: 0.00018
- binder: "anti-CI-M6PR VHH11 (VHH, His6-tagged; made in Pichia pastoris) VHH: QVQLQESGGGLVQAGDSLKLSCTASGPTFSEITGGWFRQVPGKEREFVASISSTGITTYYTDSVKGRFTVSRDNAKNTMYLQMNSLKPEDTGVYYCAARSTSRSIAITVGYDYWGQGTQVTVSS"
  result: 0.00391
- binder: "anti-CI-M6PR VHH9 (VHH, His6-tagged; made in Pichia pastoris) VHH: QVQLQESGGGLVQAGGSLRLSCAASGTILSIKTMGWYRQAPGKEREWVATITSSSIPMYADSVKGRFTISRDDAKNTVYLQMNSLKPEDTGVYYCNAPWTDYWGQGTQVTVSS"
  result: 0.000444
